Entries and their measured MIC follow.
system: S. pneumoniae AB 31; assay: MIC, agar incorporation method; format: cell-based, Streptococcus pneumoniae; conditions: S. No. 36, S. pneumoniae AB 31
Answer with the figure and its unit, nothing else.

# COMPOUND, ASSAY_TARGET, VALUE_OBSERVED
rows = [
    ("C[C@H](Cl)C(=O)NCC1CN(c2ccc(N3CCN(c4ccc([N+](=O)[O-])s4)CC3)c(F)c2)C(=O)O1 (stereo partly shown)", "S. pneumoniae AB 31", "1 µg/mL"),
]

QUERY: Report MIC for `CC(=O)NC[C@H]1CN(c2ccc(N3CCN(c4ccc([N+](=O)[O-])s4)CC3)cc2)C(=O)O1` please.
RESULT: 0.5 µg/mL

QUERY: Report MIC for `CC(=O)NC[C@H]1CN(c2ccc(N3CCN(c4cc(C(OC(C)=O)OC(C)=O)sc4[N+](=O)[O-])CC3)c(F)c2)C(=O)O1` please.
RESULT: 0.5 µg/mL

QUERY: Report MIC for `O=C(NC[C@H]1CN(c2ccc(N3CCN(c4ccc([N+](=O)[O-])s4)CC3)c(F)c2)C(=O)O1)C(Cl)Cl` please.
RESULT: 0.25 µg/mL

----------
Entries and their measured MIC follow.
test system: S. aureus (MRSA) 21299; assay: MIC, agar incorporation method; format: cell-based, Staphylococcus aureus; conditions: S. No. 5, S. aureus (MRSA) 21299
Answer format: numeric, µg/mL implied, no suffix.

# annotated cases, reported MIC shown
# COMPOUND_SMILES, ASSAY_TARGET, MIC, µg/mL
rows = [
    ("O=C(NC[C@H]1CN(c2ccc(N3CCN(c4ccc([N+](=O)[O-])s4)CC3)c(F)c2)C(=O)O1)C(Cl)Cl", "S. aureus (MRSA) 21299", 1),
    ("CC(=O)NC[C@H]1CN(c2ccc(N3CCN(c4cc(C(OC(C)=O)OC(C)=O)sc4[N+](=O)[O-])CC3)c(F)c2)C(=O)O1", "S. aureus (MRSA) 21299", 0.25),
]

Then there is this compound:
QUERY: Report MIC for `CC(=O)NC[C@H]1CN(c2ccc(N3CCN(c4ccc([N+](=O)[O-])s4)CC3)cc2)C(=O)O1` please.
RESULT: 1

----------
Entries and their measured MIC follow.
tested on: S. pneumoniae AB 21; assay: MIC, agar incorporation method; format: cell-based, Streptococcus pneumoniae; details: Streptococcus pneumoniae, AB21
Answer with the figure and its unit, nothing else.

# COMPOUND, OBSERVATION_TYPE, VALUE_OBSERVED
data = [
    ("O=C(NC[C@H]1CN(c2ccc(N3CCN(c4ccc([N+](=O)[O-])s4)CC3)c(F)c2)C(=O)O1)C(F)F [Compound No. 8]", "MIC", "0.25 µg/mL"),
]

QUERY: Report MIC for CC(=O)NC[C@H]1CN(c2ccc(N3CCOCC3)c(F)c2)C(=O)O1 [Linezolid, reference compound] please.
RESULT: 1 µg/mL

QUERY: Report MIC for CC(=O)NC[C@H]1CN(c2ccc(N3CCN(c4ccc([N+](=O)[O-])s4)CC3)c(F)c2)C(=O)O1 [Compound No. 1] please.
RESULT: 0.125 µg/mL

QUERY: Report MIC for CN[C@H](CC(C)C)C(=O)N[C@H]1C(=O)N[C@@H](CC(N)=O)C(=O)N[C@H]2C(=O)N[C@H]3C(=O)N[C@H](C(=O)N[C@H](C(=O)O)c4cc(O)cc(O)c4-c4cc3ccc4O)[C@H](O)c3ccc(c(Cl)c3)Oc3cc2cc(c3O[C@@H]2O[C@H](CO)[C@@H](O)[C@H](O)[C@H]2O[C@H]2C[C@](C)(N)[C@H](O)[C@H](C)O2)Oc2ccc(cc2Cl)[C@H]1O [Vancomycin, reference compound] please.
RESULT: 0.25 µg/mL
